The molecules listed here are annotated with their Thrombin at 100 μM %.
- testTarget: Thrombin, from Human Plasma (Homo sapiens)
- protocolDescription: Enzymatic assay, thrombin
Where a SMILES comes first, the peptide text is derived from it.

molecule: CCCCCCCC[C@@H]1NC(=O)[C@@H]2CCCN2C(=O)[C@H]2CCCN2C(=O)[C@H](Cc2ccc(O)cc2)NC(=O)[C@@H]2CSSC[C@H](NC1=O)C(=O)N[C@@H]([C@@H](C)O)C(=O)N[C@@H](C)C(=O)N[C@@H](CO)C(=O)N[C@@H]([C@@H](C)CC)C(=O)N1CCC[C@H]1C(=O)N1CCC[C@H]1C(=O)N[C@@H](CCC(N)=O)C(=O)N2 [Ex. 102] (HELM PEPTIDE1{[CCCCCCCC[C@H](N[*:1])C(=O)[*:2]].C.T.A.S.I.P.P.Q.C.Y.[dP].P}$PEPTIDE1,PEPTIDE1,2:R3-10:R3|PEPTIDE1,PEPTIDE1,1:R1-13:R2$$$V2.0)
reading: 1.7%

Need Thrombin at 100 μM % of CCCC[C@@H]1NC(=O)[C@@H]2CCCN2C(=O)[C@H]2CCCN2C(=O)[C@H](Cc2ccc(O)cc2)NC(=O)[C@@H]2CSSC[C@H](NC1=O)C(=O)N[C@@H](C)C(=O)N[C@@H](C)C(=O)N[C@@H](CO)C(=O)N[C@@H]([C@@H](C)CC)C(=O)N1CCC[C@H]1C(=O)N1CCC[C@H]1C(=O)N[C@@H](CCC(N)=O)C(=O)N2 [Ex. 86] (HELM PEPTIDE1{[Nle].C.A.A.S.I.P.P.Q.C.Y.[dP].P}$PEPTIDE1,PEPTIDE1,2:R3-10:R3|PEPTIDE1,PEPTIDE1,1:R1-13:R2$$$V2.0) , thanks.
10.7%

---

- testTarget: Elastase from human neutrophils (Homo sapiens, UniProt P08246)
- Sequence (P08246 30-267): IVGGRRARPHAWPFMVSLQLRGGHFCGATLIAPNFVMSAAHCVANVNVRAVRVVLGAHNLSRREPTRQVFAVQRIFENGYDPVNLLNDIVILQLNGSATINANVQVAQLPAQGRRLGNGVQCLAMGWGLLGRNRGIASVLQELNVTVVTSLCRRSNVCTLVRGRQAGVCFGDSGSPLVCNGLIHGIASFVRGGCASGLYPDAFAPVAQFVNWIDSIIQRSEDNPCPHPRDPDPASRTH
- protocolDescription: Enzymatic assay, elastase
- testContext: Elastase IC50
Where a SMILES comes first, the peptide text is derived from it.
readoutKind: IC50 (nM)
Unit nM implied. Number only.

Need IC50 of CCCC[C@@H]1NC(=O)[C@H](CCC(=O)O)NC(=O)[C@@H](CCCCN)NC(=O)[C@H](Cc2ccc(O)cc2)NC(=O)[C@@H]2CSSC[C@H](NC1=O)C(=O)N[C@@H]([C@@H](C)O)C(=O)N[C@@H](C)C(=O)N[C@@H](CO)C(=O)N[C@@H]([C@@H](C)CC)C(=O)N1CCC[C@H]1C(=O)N1CCC[C@H]1C(=O)N[C@@H](CCC(N)=O)C(=O)N2 [Ex. 127] (HELM PEPTIDE1{[Nle].C.T.A.S.I.P.P.Q.C.Y.[dK].E}$PEPTIDE1,PEPTIDE1,2:R3-10:R3|PEPTIDE1,PEPTIDE1,1:R1-13:R2$$$V2.0) , thanks.
29

---

The compounds listed here are annotated with their FXa at 100 μM %.
- testTarget: Coagulation Factor Xa, from uman plasma (Homo sapiens)
- Sequence (P00742 235-488 limits assumed): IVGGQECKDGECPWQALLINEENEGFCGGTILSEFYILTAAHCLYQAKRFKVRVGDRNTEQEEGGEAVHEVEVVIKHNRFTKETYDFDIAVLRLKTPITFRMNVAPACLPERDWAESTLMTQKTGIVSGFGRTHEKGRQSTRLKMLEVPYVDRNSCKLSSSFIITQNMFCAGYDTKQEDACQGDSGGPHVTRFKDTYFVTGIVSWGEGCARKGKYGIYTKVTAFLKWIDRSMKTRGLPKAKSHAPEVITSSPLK
- Sequence (P00742 41-179 limits assumed): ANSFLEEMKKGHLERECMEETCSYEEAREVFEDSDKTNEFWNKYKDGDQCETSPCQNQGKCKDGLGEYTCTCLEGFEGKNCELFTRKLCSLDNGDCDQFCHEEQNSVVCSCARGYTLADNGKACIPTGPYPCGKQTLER
- protocolDescription: Enzymatic assay, coagulation factor Xa
Where a SMILES comes first, the peptide text is derived from it.
Unit % implied. Number only.

compound: CCCC[C@@H]1NC(=O)[C@@H]2CCCN2C(=O)[C@@H]2CCCN2C(=O)[C@H](CC(=O)O)NC(=O)[C@H](CO)NC(=O)[C@H](CCCCN)NC(=O)[C@H]([C@@H](C)O)NC(=O)[C@@H]2CSSC[C@H](NC1=O)C(=O)N[C@@H](Cc1ccc(O)cc1)C(=O)N1CCC[C@@H]1C(=O)N1CCC[C@H]1C(=O)N[C@@H](C1CCCCC1)C(=O)N2 [Ex. 63] (HELM PEPTIDE1{[O=C([C@@H](N[*:1])C1CCCCC1)[*:2]].C.T.K.S.D.P.P.[Nle].C.Y.[dP].P}$PEPTIDE1,PEPTIDE1,2:R3-10:R3|PEPTIDE1,PEPTIDE1,1:R1-13:R2$$$V2.0)
readoutKind: FXa at 100 μM %
reading: 0

Write down the reported FXa at 100 μM % of CC[C@H](C)[C@@H]1NC(=O)[C@@H]2CCCN2C(=O)[C@@H]2CCCN2C(=O)[C@H](CC(=O)O)NC(=O)[C@H](CO)NC(=O)[C@H](CCCCN)NC(=O)[C@H]([C@@H](C)O)NC(=O)[C@@H]2CSSC[C@H](NC1=O)C(=O)N[C@@H](CC(N)=O)C(=O)N1CCC[C@@H]1C(=O)N1CCC[C@H]1C(=O)N[C@@H](Cc1ccccc1)C(=O)N2 [Ex. 3] (HELM PEPTIDE1{F.C.T.K.S.D.P.P.I.C.N.[dP].P}$PEPTIDE1,PEPTIDE1,2:R3-10:R3|PEPTIDE1,PEPTIDE1,1:R1-13:R2$$$V2.0) , test system: Coagulation Factor Xa, from uman plasma (Homo sapiens).
4

---

- Test system: Tryptase, from human lung
- protocolDescription: Enzymatic assay, tryptase
- testContext: at 100 μM
Where a SMILES comes first, the peptide text is derived from it.
readoutKind: Tryptase at 100 μM % (%)
Unit % implied. Number only.

compound: CCCC[C@@H]1NC(=O)[C@@H]2CCCN2C(=O)[C@H]2CCCN2C(=O)[C@H](Cc2ccc(O)cc2)NC(=O)[C@@H]2CSSC[C@H](NC1=O)C(=O)N[C@@H]([C@@H](C)O)C(=O)N[C@@H](C)C(=O)N[C@@H](CO)C(=O)N[C@@H](CC1CCCCC1)C(=O)N1CCC[C@H]1C(=O)N1CCC[C@H]1C(=O)N[C@@H](CCC(N)=O)C(=O)N2 [Ex. 82] (HELM PEPTIDE1{[Nle].C.T.A.S.[Cha].P.P.Q.C.Y.[dP].P}$PEPTIDE1,PEPTIDE1,2:R3-10:R3|PEPTIDE1,PEPTIDE1,1:R1-13:R2$$$V2.0)
reading: 44.5
--
compound: CCCC[C@@H]1NC(=O)[C@@H]2CCCN2C(=O)[C@H]2CCCN2C(=O)[C@H](Cc2ccccc2Cl)NC(=O)[C@@H]2CSSC[C@H](NC1=O)C(=O)N[C@@H]([C@@H](C)O)C(=O)N[C@@H](C)C(=O)N[C@@H](CO)C(=O)N[C@@H]([C@@H](C)CC)C(=O)N1CCC[C@H]1C(=O)N1CCC[C@H]1C(=O)N[C@@H](CCC(N)=O)C(=O)N2 [Ex. 96] (HELM PEPTIDE1{[Nle].C.T.A.S.I.P.P.Q.C.[O=C([C@H](Cc1ccccc1Cl)N[*:1])[*:2]].[dP].P}$PEPTIDE1,PEPTIDE1,2:R3-10:R3|PEPTIDE1,PEPTIDE1,1:R1-13:R2$$$V2.0)
reading: 0
--
compound: CC[C@H](C)[C@@H]1NC(=O)[C@@H]2CCCN2C(=O)[C@@H]2CCCN2C(=O)[C@H](CC(=O)O)NC(=O)[C@H](CO)NC(=O)[C@H](CCCCN)NC(=O)[C@H]([C@@H](C)O)NC(=O)[C@@H]2CSSC[C@H](NC1=O)C(=O)N[C@@H](CC(N)=O)C(=O)N1CCC[C@@H]1C(=O)N1CCC[C@H]1C(=O)N[C@@H](Cc1ccc(N)cc1)C(=O)N2 [Ex. 31] (HELM PEPTIDE1{[Nc1ccc(C[C@H](N[*:1])C(=O)[*:2])cc1].C.T.K.S.D.P.P.I.C.N.[dP].P}$PEPTIDE1,PEPTIDE1,2:R3-10:R3|PEPTIDE1,PEPTIDE1,1:R1-13:R2$$$V2.0)
reading: 76

Need Tryptase at 100 μM % of CC[C@H](C)[C@@H]1NC(=O)[C@@H]2CCCN2C(=O)[C@H]2CCCN2C(=O)[C@H](CCCNC(=N)N)NC(=O)[C@@H]2CSSC[C@H](NC1=O)C(=O)N[C@@H]([C@@H](C)O)C(=O)N[C@@H](CCCCN)C(=O)N[C@@H](CO)C(=O)N[C@@H](CC(=O)O)C(=O)N1CCC[C@H]1C(=O)N1CCC[C@H]1C(=O)N[C@@H](CCC(N)=O)C(=O)N2 [Ex. 55] (HELM PEPTIDE1{I.C.T.K.S.D.P.P.Q.C.R.[dP].P}$PEPTIDE1,PEPTIDE1,2:R3-10:R3|PEPTIDE1,PEPTIDE1,1:R1-13:R2$$$V2.0) , thanks.
90.4

---

- testTarget: CathepsinG, from human neutrophils (Homo sapiens, UniProt P08311)
- Sequence (P08311 21-244): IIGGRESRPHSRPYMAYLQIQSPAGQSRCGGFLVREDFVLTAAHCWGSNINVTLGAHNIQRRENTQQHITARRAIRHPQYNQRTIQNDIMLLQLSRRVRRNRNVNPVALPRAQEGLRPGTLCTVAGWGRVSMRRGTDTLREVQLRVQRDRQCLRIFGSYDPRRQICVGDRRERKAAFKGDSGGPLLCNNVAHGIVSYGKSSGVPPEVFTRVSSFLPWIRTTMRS
- protocolDescription: Enzymatic assay, cathepsin G
- testContext: Cathepsin G IC50
Where a SMILES comes first, the peptide text is derived from it.
readoutKind: pIC50
Please express pIC50 as -log10 of the molar concentration.

Need pIC50 of CC[C@H](C)[C@@H]1NC(=O)[C@@H]2CCCN2C(=O)[C@@H]2CCCN2C(=O)[C@H](CC(=O)O)NC(=O)[C@H](CO)NC(=O)[C@H](CCCCN)NC(=O)[C@H]([C@@H](C)O)NC(=O)[C@@H]2CSSC[C@H](NC1=O)C(=O)N[C@@H](CC(=O)O)C(=O)N1CCC[C@@H]1C(=O)N1CCC[C@H]1C(=O)N[C@@H](Cc1ccccc1)C(=O)N2 [Ex. 2] (HELM PEPTIDE1{F.C.T.K.S.D.P.P.I.C.D.[dP].P}$PEPTIDE1,PEPTIDE1,2:R3-10:R3|PEPTIDE1,PEPTIDE1,1:R1-13:R2$$$V2.0) , thanks.
7.08
